B1: wild-type rTpiA (recombinant Streptococcus pneumoniae D39 triosephosphate isomerase) [Streptococcus pneumoniae D39] / human plasma plasminogen [human] (parent complex)
chain 1: SRKPFIAGNWKMNKNPEEAKAFVEAVASKLPSSDLVEAGIAAPALDLTTVLAVAKGSNLKVAAQNCYFENAGAFTGETSPQVLKEIGTDYVVIGHSERRDYFHETDEDINKKAKAIFANGMLPIICCGESLETYEAGKAAEFVGAQVSAALAGLTAEQVAASVIAYEPIWAIGTGKSASQDDAQKMCKVVRDVVAADFGQEVADKVRVQYGGSVKPENVASYMACPDVDGALVGGASLEAESFLALLDFVK
chain 2: EPLDDYVNTQGASLFSVTKKQLGAGSIEECAAKCEEDEEFTCRAFQYHSKEQQCVIMAENRKSSIIIRMRDVVLFEKKVYLSECKTGNGKNYRGTMSKTKNGITCQKWSSTSPHRPRFSPATHPSEGLEENYCRNPDNDPQGPWCYTTDPEKRYDYCDILECEEECMHCSGENYDGKISKTMSGLECQAWDSQSPHAHGYIPSKFPNKNLKKNYCRNPDRELRPWCFTTDPNKRWELCDIPRCTTPPPSSGPTYQCLKGTGENYRGNVAVTVSGHTCQHWSAQTPHTHNRTPENFPCKNLDENYCRNPDGKRAPWCHTTNSQVRWEYCKIPSCDSSPVSTEQLAPTAPPELTPVVQDCYHGDGQSYRGTSSTTTTGKKCQSWSSMTPHRHQKTPENYPNAGLTMNYCRNPDADKGPWCFTTDPSVRWEYCNLKKCSGTEASVVAPPPVVLLPDVETPSEEDCMFGNGKGYRGKRATTVTGTPCQDWAAQEPHRHSIFTPETNPRAGLEKNYCRNPDGDVGGPWCYTTNPRKLYDYCDVPQCAAPSFDCGKPQVEPKKCPGRVVGGCVAHPHSWPWQVSLRTRFGMHFCGGTLISPEWVLTAAHCLEKSPRPSSYKVILGAHQEVNLEPHVQEIEVSRLFLEPTRKDIALLKLSSPAVITDKVIPACLPSPNYVVADRTECFITGWGETQGTFGAGLLKEAQLPVIENKVCNRYEFLNGRVQSTELCAGHLAGGTDSCQGDSGGPLVCFEKDKYILQGVTSWGLGCARPNKPGVYVRVSRFVTWIEGVMRNN

Variants of: B1
Experiment: ELISA; rTpiA protein-coated microtiter plate; measured 60 min after substrate addition; n = 9; parent: 1.4; read off a plot
measurement.kind: response

The following variants have reported results that may help.
chain 1 K11A | ~1.3 A405
chain 1 K114A | ~1.3 A405
chain 1 K251A | ~0.14 A405
chain 1 K60A | ~1.3 A405
chain 1 K176A | ~1.3 A405
chain 1 K215A | ~1.4 A405
chain 1 K3A | ~1.3 A405
chain 1 K188A | ~1.3 A405
chain 1 K111A, chain 1 K112A, chain 1 K114A | ~0.86 A405
chain 1 K55A | ~1.3 A405

Value of measured response for the entry chain 1 K185A : ~1.3 A405

Value of measured response for the entry chain 1 K111A : ~1.3 A405

Value of measured response for the entry chain 1 K14A : ~1.3 A405

Value of measured response for the entry chain 1 K29A : ~1.2 A405

Value of measured response for the entry chain 1 K84A : ~1.2 A405

Value of measured response for the entry chain 1 K112A : ~1.2 A405
